Tested on: MDA-MB-435 melanoma
testSummary: NCI-60 one-dose screen, 48 h (100 = growth as untreated, 0 = no growth, -100 = all killed)
statedConditions: 10 µM unless noted
Compounds without any hit were thinned out: in the full panel of roughly 83,000, 20% have a hit.
measureName: growth (%)
Respond numerically; units are % and should not be typed.

Reported growth for CCOC(=O)c1cnc(SCc2ccc(Cl)c(Cl)c2)nc1N1CC1 : what is it?
10.5

Reported growth for CC1(CF)NC(=O)NC1=O (configuration not stated) : what is it?
107

Reported growth for COc1ccc(NP2(=O)OCC(C)(N)CO2)cc1 (configuration not stated) : what is it?
108

Reported growth for CCCCn1cc(C(=O)/C(C#N)=C/c2cc3ccccc3nc2Cl)c2cc(OC)ccc21 : what is it?
101

Reported growth for ClCCN(CCCl)C(c1ccccc1)c1ccc(Cl)cc1 (configuration not stated) : what is it?
88

Reported growth for CC12CCC(=O)C=C1CCC1C2CCC2(C)C(C(=O)COC(=O)Cc3ccc(N(CCCl)CCCl)cc3)CCC12 (configuration not stated) : what is it?
96.1

Reported growth for CC(CC(C#N)(c1ccccc1)c1ccccc1)N1CCOCC1 (configuration not stated) : what is it?
118

Reported growth for O=C1NC2(CCNCC2)Nc2ccccc21 : what is it?
104

Reported growth for C[As](=O)(O)c1ccc(C(=O)O)cc1 : what is it?
98.4

Reported growth for CCC(C)(C)O : what is it?
92.3

Reported growth for CC1COC(=O)C1 (configuration not stated) : what is it?
102

Reported growth for CCC(/C=C(C)/C=C/C(=O)c1c(O)c(-c2ccc(O)cc2)c[nH]c1=O)CO (configuration not stated) : what is it?
80.9

---

Tested on: NCI-H322M lung
testSummary: NCI-60 one-dose screen, 48 h (100 = growth as untreated, 0 = no growth, -100 = all killed)
statedConditions: 10 µM unless noted
The panel holds about 83,000 compounds, 20% with a hit somewhere; the sample as a whole holds those more often.
measureName: growth (%)
Respond numerically; units are % and should not be typed.

Provide the documented growth with NCI-H322M lung as the system for ClCCN(CCCl)c1nc(Cl)c(C2CC(c3ccc(Cl)cc3)=NN2c2cc(Cl)cc(Cl)c2)s1 (configuration not stated)
102

Provide the documented growth with NCI-H322M lung as the system for O=c1[nH]c2cc(Cl)ccc2n1C1CCN(CCCC(c2ccc(F)cc2)c2ccc(F)cc2)CC1
78.1

Provide the documented growth with NCI-H322M lung as the system for CC(=O)[O][Hg][c]1ccccc1
40.1

Provide the documented growth with NCI-H322M lung as the system for CN1CCN(C(=O)COc2ccc(/C=C3\CC4C5CC=C6CC(Cl)CCC6(C)C5CCC4(C)C3=O)cc2)CC1 (configuration not stated)
85.7

Provide the documented growth with NCI-H322M lung as the system for CCC(C)/C=C(C)/C=C/C(=O)c1c(O)c(-c2ccc(O)cc2)c[nH]c1=O (configuration not stated)
59.3

Provide the documented growth with NCI-H322M lung as the system for CCN(CC)c1ccc(C=C2C(=O)NC(=S)NC2=O)cc1
104

Provide the documented growth with NCI-H322M lung as the system for CCC(CO)NC1CCCCC1 (configuration not stated)
97.2

Provide the documented growth with NCI-H322M lung as the system for CC1(C)N=C(N)N=C(N)N1c1ccc(OCCCCNC(=O)Nc2cccc(S(=O)(=O)F)c2)c(Cl)c1
57.6

Provide the documented growth with NCI-H322M lung as the system for OC1(c2ccccc2F)c2ccccc2C2=NCCN21 (configuration not stated)
97.2

Provide the documented growth with NCI-H322M lung as the system for CCC1CN1P(=O)(OCCOC)N1CC1CC (configuration not stated)
101

Provide the documented growth with NCI-H322M lung as the system for Nc1ccc([N+](=O)[O-])c2c1Oc1ccccc1O2
93.9

Provide the documented growth with NCI-H322M lung as the system for CC(C)(C)[Si](C)(C)OC1[C@@H](O[Si](C)(C)C(C)(C)C)[C@@H](CNC(=O)NC(=O)CF)O[C@H]1n1cnc2c(NC(=O)Nc3ccccc3)ncnc21 (some centres not stated)
104

Provide the documented growth with NCI-H322M lung as the system for COc1cc2c(cc1OC)CN(C)C(C)C2 (configuration not stated)
106

Provide the documented growth with NCI-H322M lung as the system for CCOC(=O)/C(C#N)=C/c1ccc(N(CCCl)CCCl)cc1
110

Provide the documented growth with NCI-H322M lung as the system for Nc1cccc2c1Oc1ccccc1O2
102

Provide the documented growth with NCI-H322M lung as the system for Nc1cccc(CC(=O)Nc2ccc(S(=O)(=O)F)cc2)c1
104

Provide the documented growth with NCI-H322M lung as the system for CO[C@@H]([CH2][Hg][S]C#N)[C@@H]([CH2][Hg][S]C#N)OC
101

Provide the documented growth with NCI-H322M lung as the system for C[C@@H]1O[C@@H](O[C@H]2CC[C@@]3(C)[C@H](CCC4[C@@H]3C(O)C[C@]3(C)[C@@H](c5ccc(=O)oc5)CC[C@]43O)C2)[C@H](O)[C@H](O)[C@H]1O (some centres not stated)
-73.9

Provide the documented growth with NCI-H322M lung as the system for Oc1ccc(O)c2c1C1(Cl)C(Cl)=C(Cl)C2(Cl)C1(Cl)Cl
33.1

Provide the documented growth with NCI-H322M lung as the system for Cc1nnc([S-])s1.[Au+].c1ccc([PH+](c2ccccc2)c2ccccc2)cc1
84.2

Provide the documented growth with NCI-H322M lung as the system for CC(/C=N/N=C(N)N)=N/N=C(N)N
34.9

Provide the documented growth with NCI-H322M lung as the system for COC(=O)C[Se]C(=O)c1ccccc1OC(C)=O
77.5

Provide the documented growth with NCI-H322M lung as the system for C[C@@H]1CC[C@@H]2[C@@H]1[C@H](OC(=O)/C=C/C1CCCCC1)[C@]1(C3CCCCC3)C[C@@H](OC(=O)CO)[C@@]2(C)O1
85.6

Provide the documented growth with NCI-H322M lung as the system for CCCCCCCCCCOc1ccc(C(=O)Oc2ccc(CSP3(=O)OCC4OC(n5ccc(=O)[nH]c5=O)C(F)C4OP(=O)(O)OCC4OC(n5cnc6c(N)ncnc65)C(F)C4O3)cc2)cc1 (configuration not stated)
84.8

Provide the documented growth with NCI-H322M lung as the system for Cc1ccc(N)cc1[As]=[As]c1cc(N)ccc1C (configuration not stated)
50.3

Provide the documented growth with NCI-H322M lung as the system for C=CCN1C(=O)C(CC)(CCC(C)C)C(=O)NC1=S (configuration not stated)
106

Provide the documented growth with NCI-H322M lung as the system for c1ccc2nc(OCCN3CC3)ccc2c1
94

Provide the documented growth with NCI-H322M lung as the system for c1ccc(CCN2CCCCC2Cc2ccccc2)cc1 (configuration not stated)
78.5

Provide the documented growth with NCI-H322M lung as the system for CC1(C)N=C(N)N=C(N)N1c1ccc(CCCCc2ccc(S(=O)(=O)F)cc2)c(Cl)c1
43.1

Provide the documented growth with NCI-H322M lung as the system for CCCCNCCc1ccccn1
113

Provide the documented growth with NCI-H322M lung as the system for CC1(C)N=C(N)N=C(N)N1c1ccc(OCCCCOc2ccc(S(=O)(=O)F)cc2)c(Cl)c1
23.2

Provide the documented growth with NCI-H322M lung as the system for O=C(CCF)c1ccc(O)cc1
101

Provide the documented growth with NCI-H322M lung as the system for CCC(/C=C(C)/C=C/C(=O)c1c(O)c(-c2ccc(O)cc2)c[nH]c1=O)CO (configuration not stated)
96

Provide the documented growth with NCI-H322M lung as the system for O=[As]c1ccc(C(=O)c2ccc(Oc3ccccc3)cc2)cc1 (configuration not stated)
-79.1

Provide the documented growth with NCI-H322M lung as the system for O=CC(Br)C(Br)c1ccccc1 (configuration not stated)
103

Provide the documented growth with NCI-H322M lung as the system for COc1cc(C2(C#N)CCN(C)CC2)cc(OC)c1OC
129

Provide the documented growth with NCI-H322M lung as the system for Cc1ccc2oc(=O)c3c(c2c1)OC(N)=C(C#N)C3c1ccco1 (configuration not stated)
98.8

Provide the documented growth with NCI-H322M lung as the system for CC(=O)[O][Hg][c]1nc2c(c(=O)n(C)c(=O)n2C)n1C
95.7

Provide the documented growth with NCI-H322M lung as the system for Nc1c(Br)cc2c3c(cccc13)-c1ccccc1-2
91.2

Provide the documented growth with NCI-H322M lung as the system for CCCCCN(CCCCC)CC(O)c1ccc(C)c(Cl)c1 (configuration not stated)
102

Provide the documented growth with NCI-H322M lung as the system for CC(C)CCC[C@@H](C)[C@H]1CC[C@H]2[C@@H]3CC=C4C[C@@H](OC(=O)Cc5ccc(N(CCCl)CCCl)cc5)CC[C@]4(C)[C@H]3CC[C@]12C
214

Provide the documented growth with NCI-H322M lung as the system for OC1(c2ccc(Cl)cc2Cl)c2ccccc2C2=NCCN21 (configuration not stated)
98.6
